targetOfAssay: human Nav1.1 (Homo sapiens)
Construct: host or cells: HEK293
measurementNotes: Amplification of Nav1.1-derived voltage-gated sodium current (Nav1.1 current), automated patch clamp (Test 1)
Assay type: cell-based
testParameters: Concentration for evaluation 10 μM; HEK293 cell line stably expressing human Nav1.1
Procedure: Test 1: Evaluation of the Amplification of Nav1.1-Derived Voltage-Gated Sodium Current (Nav1.1 Current) by Using a Cell Line Stably Expressing Human Nav1.1 (1) Preparation of Test Compound Solution […] The effect of test compounds on the amplification of Nav1.1-derived voltage-gated sodium current was evaluated by using a cell line stably expressing human Nav1.1 and HTS automated patch clamp system. […] The Nav1.1 current amplification rates of test compounds were calculated by the following formula: […]
measurementType: Nav1.1 current amplification rate (%)
Quick reminder: number only, in %, skip the unit.

Prompt: Could you tell me which Nav1.1 current amplification rate (%) is on file for CN(c1cnc2cnn(CC(=O)Nc3ccc4ncccc4n3)c2n1)C1CC1 [Example 725] ?
Completion: 51

Prompt: Could you tell me which Nav1.1 current amplification rate (%) is on file for COc1cc(-c2cc(Cl)cs2)nn(CC(=O)Nc2ccn3ccnc3c2)c1=O [Example 466] ?
Completion: 233

Prompt: Could you tell me which Nav1.1 current amplification rate (%) is on file for Cc1nc2cc(NC(=O)Cn3nc(N4CCC(C)CC4)ccc3=O)ccc2o1 [Example 69] ?
Completion: 137

Prompt: Could you tell me which Nav1.1 current amplification rate (%) is on file for Cc1cc(NC(=O)Cn2nc(N3CCC(C)CC3)ccc2=O)cc2ncoc12 [Example 96] ?
Completion: 105

Prompt: Could you tell me which Nav1.1 current amplification rate (%) is on file for Cc1noc2ccc(NC(=O)Cn3nc(N4CCC(C)CC4)ccc3=O)cc12 [Example 70] ?
Completion: 68

Prompt: Could you tell me which Nav1.1 current amplification rate (%) is on file for CC1CCN(c2ccc(=O)n(CC(=O)Nc3ccc4oc(N(C)C)nc4c3)n2)CC1 [Example 91] ?
Completion: 93

Prompt: Could you tell me which Nav1.1 current amplification rate (%) is on file for CC1CC=C(c2ccc(=O)n(CC(=O)N3CCc4c3ccnc4Cl)n2)CC1 (stereo not drawn) [Example 247] ?
Completion: 53

Prompt: Could you tell me which Nav1.1 current amplification rate (%) is on file for CC1(C)CC=C(c2ccc(=O)n(CC(=O)Nc3ccc(C#N)cc3)n2)CC1 [Example 42] ?
Completion: 216

Prompt: Could you tell me which Nav1.1 current amplification rate (%) is on file for Cc1cc(C2=CCC(C)(C)CC2)nn(CC(=O)Nc2ccn3ccnc3c2)c1=O [Example 460] ?
Completion: 221

Prompt: Could you tell me which Nav1.1 current amplification rate (%) is on file for Cc1ccc(-c2ccc(=O)n(CC(=O)Nc3ccc4ocnc4c3)n2)s1 [Example 455] ?
Completion: 131

Prompt: Could you tell me which Nav1.1 current amplification rate (%) is on file for CC1CCN(c2ccc(=O)n(CC(=O)Nc3ccc4scnc4c3)n2)CC1 [Example 87] ?
Completion: 255

Prompt: Could you tell me which Nav1.1 current amplification rate (%) is on file for CC1CCN(c2ccc(=O)n(CC(=O)Nc3cncc(C#N)c3)n2)CC1 [Example 60] ?
Completion: 57

Prompt: Could you tell me which Nav1.1 current amplification rate (%) is on file for COc1ccc2c(c1)CCN2C(=O)Cn1nc(C2=CCC(C)(C)CC2)ccc1=O [Example 430] ?
Completion: 28

Prompt: Could you tell me which Nav1.1 current amplification rate (%) is on file for Cc1cncc(N2CCN(C(=O)Cn3nc(C4=CCC(C)(C)CC4)ccc3=O)CC2)c1 [Example 442] ?
Completion: 414

Prompt: Could you tell me which Nav1.1 current amplification rate (%) is on file for CC1(C)CC=C(c2ccc(=O)n(CC(=O)Nc3ccn4ccnc4c3)n2)CC1 [Example 425] ?
Completion: 283

Prompt: Could you tell me which Nav1.1 current amplification rate (%) is on file for CC1CC=C(c2ccc(=O)n(CC(=O)N3CCN(Cc4cccnc4)CC3)n2)CC1 (stereo not drawn) [Example 393] ?
Completion: 19

Prompt: Could you tell me which Nav1.1 current amplification rate (%) is on file for CC1CCN(c2ccc(=O)n(CC(=O)Nc3cccc(-c4nccs4)c3)n2)CC1 [Example 80] ?
Completion: 131

Prompt: Could you tell me which Nav1.1 current amplification rate (%) is on file for CC1CC=C(c2ccc(=O)n(CC(=O)Nc3ccc(C#N)cc3)n2)CC1 (stereo not drawn) [Example 41] ?
Completion: 324

Prompt: Could you tell me which Nav1.1 current amplification rate (%) is on file for CC1CC=C(c2ccc(=O)n(CC(=O)Nc3cc4nccn4cc3C#N)n2)CC1 (stereo not drawn) [Example 359] ?
Completion: 26

Prompt: Could you tell me which Nav1.1 current amplification rate (%) is on file for CC1CCN(c2ccc(=O)n(CC(=O)Nc3cc(Cl)c4ocnc4c3)n2)CC1 [Example 94] ?
Completion: 198

Prompt: Could you tell me which Nav1.1 current amplification rate (%) is on file for Cc1nc2cc(NC(=O)Cn3nc(N4CCC(C)CC4)ccc3=O)ccc2s1 [Example 88] ?
Completion: 183

Prompt: Could you tell me which Nav1.1 current amplification rate (%) is on file for O=C(Cn1ncc2cnc(N3CCOCC3)nc21)Nc1ccn2ncnc2c1 [Example 767] ?
Completion: 60

Prompt: Could you tell me which Nav1.1 current amplification rate (%) is on file for CC1CCC(c2ccc(=O)n(CC(=O)N3CCc4c(N5CCOCC5)cccc43)n2)CC1 (mixture of isomers) [Example 472] ?
Completion: 387

Prompt: Could you tell me which Nav1.1 current amplification rate (%) is on file for CC1CC=C(c2ccc(=O)n(CC(=O)NC3CN(c4ccccc4)C3)n2)CC1 (stereo not drawn) [Example 372] ?
Completion: 52

Prompt: Could you tell me which Nav1.1 current amplification rate (%) is on file for CN1CCN(c2cccc3c2CCN3C(=O)Cn2nc(C3=CCC(C)(C)CC3)ccc2=O)CC1 [Example 433] ?
Completion: 192

Prompt: Could you tell me which Nav1.1 current amplification rate (%) is on file for N#Cc1ccc(NC(=O)Cn2nc(N3CCCC3)ccc2=O)cc1 [Example 4] ?
Completion: 3

Prompt: Could you tell me which Nav1.1 current amplification rate (%) is on file for CC1CC=C(c2ccc(=O)n(CC(=O)N3CC=C(c4cncnc4)CC3)n2)CC1 (stereo not drawn) [Example 398] ?
Completion: 175

Prompt: Could you tell me which Nav1.1 current amplification rate (%) is on file for CC1(C)CCN(c2ccc(=O)n(CC(=O)Nc3ccc(C#N)cc3)n2)C1 [Example 21] ?
Completion: 130

Prompt: Could you tell me which Nav1.1 current amplification rate (%) is on file for CCN(C)c1cnc2cnn(CC(=O)Nc3ccn4ncnc4c3)c2n1 [Example 623] ?
Completion: 25

Prompt: Could you tell me which Nav1.1 current amplification rate (%) is on file for Cc1ccc(N2CCN(C(=O)Cn3nc(C4=CCC(C)(C)CC4)ccc3=O)CC2)cn1 [Example 443] ?
Completion: 114

Source: patent US20230109839A1
